Documented self-cleavage kobs at 10000 uM GlcN6P across a set of variants
B1: glmS ribozyme (parent)
chain: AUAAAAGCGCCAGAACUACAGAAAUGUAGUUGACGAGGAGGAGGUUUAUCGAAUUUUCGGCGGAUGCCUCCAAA

variants of: B1; assay: self-cleavage kobs at 10000 uM GlcN6P; higher = faster cleavage; RNA array; conditions: with glucosamine-6-phosphate
This sample holds only a part of the variants without activity.

- Changes: "C50G C61U A64G"
  self-cleavage kobs at 10000 uM GlcN6P: "4.62e-05 s⁻¹"

Prompt: Please report the recorded self-cleavage kobs at 10000 uM GlcN6P for C8G C34U G43U G62U C71U .
Response: < 1e-05 s⁻¹

Prompt: Moving on to A42U U65C
Response: < 1e-05 s⁻¹

Prompt: Moving on to U65C C70U
Response: 0.000647 s⁻¹

Prompt: Moving on to C8G U30A U31C
Response: < 1e-05 s⁻¹

Prompt: Moving on to G35C G44A U46G
Response: < 1e-05 s⁻¹

Prompt: Moving on to G44U U49C
Response: < 1e-05 s⁻¹

Prompt: Moving on to A39U U49A U56G
Response: < 1e-05 s⁻¹

Prompt: Moving on to U31C G60A
Response: < 1e-05 s⁻¹

Prompt: Moving on to A12C A14C
Response: 0.000534 s⁻¹

Prompt: Moving on to U30G A53U U69A
Response: 4.29e-05 s⁻¹
